# target-of-assay: UniProtKB Q8N884
# Sequence (Q8N884 whole entry): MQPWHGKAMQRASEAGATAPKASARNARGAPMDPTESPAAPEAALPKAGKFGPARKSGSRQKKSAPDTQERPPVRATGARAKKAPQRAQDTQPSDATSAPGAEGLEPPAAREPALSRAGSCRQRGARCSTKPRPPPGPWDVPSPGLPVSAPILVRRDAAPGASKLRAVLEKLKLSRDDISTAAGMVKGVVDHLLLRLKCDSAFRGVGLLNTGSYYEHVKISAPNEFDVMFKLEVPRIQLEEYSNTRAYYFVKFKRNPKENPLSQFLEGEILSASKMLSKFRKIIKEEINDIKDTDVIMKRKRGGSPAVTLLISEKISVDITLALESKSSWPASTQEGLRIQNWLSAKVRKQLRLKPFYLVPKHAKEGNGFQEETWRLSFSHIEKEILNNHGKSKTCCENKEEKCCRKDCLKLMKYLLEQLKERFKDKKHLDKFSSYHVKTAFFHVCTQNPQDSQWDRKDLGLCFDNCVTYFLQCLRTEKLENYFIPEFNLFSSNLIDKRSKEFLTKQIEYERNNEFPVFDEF
# measurement-notes: Transcreener cGAS enzymatic assay (FP)
# Type: biochemical
# cond: high ATP and GTP (1 mM) to mimic physiological conditions; read-out: IC50 FP Physiological
# Protocol: Structural, biochemical and biophysical analysis and selectivity profiling: Potency and MOA studies, including Mn^2+ sensitivity, were performed using the Transcreener cGAS enzymatic assay, which is manufactured at BellBrook Labs (Fitchburg, Wisconsin, USA). […] Plates are read on a PHERAstar FSX multimode reader (BMG). […] The IC50 values for FP under standard and under physiological conditions were determined for several exemplary compounds of the invention. […]
pIC50: −log10 of the molar value.
endpoint-name: pIC50

// known answers, use as guide
* Cc1cccc(NC(=O)C[C@H]2C[C@@H](C(=O)O)N(c3nc(C)nc4c3oc3ccccc34)C2)c1 [Compound 16] | 5.30 to 6.00
* Cc1nc(N2C[C@@H](CC(=O)Nc3ccc4ccncc4c3)C[C@H]2C(=O)O)c2oc3ccccc3c2n1 [Compound 34] | 6.30 to 6.70

The reported pIC50 of the compound COc1ccccc1NC(=O)C[C@H]1C[C@@H](C(=O)O)N(c2nc(C)nc3c2oc2ccccc23)C1 [Compound 14] was < 5.30

Sure, the documented pIC50 for COc1cccc(-c2ccc(NC(=O)C[C@H]3C[C@@H](C(=O)O)N(c4nc(C)nc5c4oc4ccccc45)C3)cc2)c1 [Compound 50] is 6.30 to 6.70

Recorded result, Cc1ccc(NC(=O)C[C@H]2C[C@@H](C(=O)O)N(c3nc(C)nc4c3oc3ccccc34)C2)cc1 [Compound 15] , pIC50: 5.30 to 6.00

* * *

# measurement-notes: Metabolic stability in mouse liver microsomes
# Type: in vitro ADME
# cond: read-out: Mouse MS Stability t1/2
endpoint-name: half-life

get_value(item= Cc1nc(N2C[C@@H](CC(=O)Nc3ccncc3)C[C@H]2C(=O)O)c2oc3ccccc3c2n1 [Compound A, reference compound] , readout=half-life) returns 1.67 to 3.33 h

* * *

# measurement-notes: Pharmacokinetics in C57BL/6 female mice, IV and PO
# Type: in vivo
# cond: mouse; IV 3 mg/kg, plasma, C57BL/6 female mice
endpoint-name: clearance (mL/min/kg)
# unit: mL/min/kg | format: bare number

Value of measured clearance for the entry Cc1nc(N2C[C@@H](CC(=O)Nc3ccc(-c4ccccc4)cc3)C[C@H]2C(=O)O)c2oc3ccccc3c2n1 [Compound 5] : 10.3

* * *

# target-of-assay: UniProtKB Q8N884
# measurement-notes: Transcreener cGAS enzymatic assay (FP)
# Type: biochemical
# cond: standard conditions: 100 μM ATP and GTP, 62.5 nM bp ISD, 60 minute reactions; read-out: IC50 FP Standard
pIC50: −log10 of the molar value.
endpoint-name: pIC50

Worked examples, 8 compounds total:
• Cc1nc(N2C[C@@H](CC(=O)Nc3ccc4cccnc4c3)C[C@H]2C(=O)O)c2oc3ccccc3c2n1 [Compound 35] = > 7.30
• Cc1nc(N2C[C@@H](CC(=O)Nc3ccc4ncsc4c3)C[C@H]2C(=O)O)c2oc3ccccc3c2n1 [Compound 4] = 7.00 to 7.30
• Cc1nc(N2C[C@@H](CC(=O)Nc3ccc(-c4ccccc4)nn3)C[C@H]2C(=O)O)c2oc3ccccc3c2n1 [Compound 64] = 6.00 to 6.70
• COc1ccccc1NC(=O)C[C@H]1C[C@@H](C(=O)O)N(c2nc(C)nc3c2oc2ccccc23)C1 [Compound 14] = 5.00 to 6.00
• Cc1nc(N2C[C@@H](CC(=O)Nc3cccc(-c4ccccc4)c3)C[C@H]2C(=O)O)c2oc3ccccc3c2n1 [Compound 36] = 7.00 to 7.30
• Cc1nc(N2C[C@@H](CC(=O)Nc3ccc(-c4cn[nH]c4)cc3)C[C@H]2C(=O)O)c2oc3ccccc3c2n1 [Compound 10] = > 7.30
• Cc1nc(N2C[C@@H](CC(=O)Nc3ccc(-c4cccnc4N)cc3)C[C@H]2C(=O)O)c2oc3ccccc3c2n1 [Compound 43] = 6.70 to 7.00
• Cc1nc(N2C[C@@H](CC(=O)Nc3ccc(OC(F)(F)F)cc3)C[C@H]2C(=O)O)c2oc3ccccc3c2n1 [Compound 12] = 6.00 to 6.70

Assay UniProtKB Q8N884, sample Cc1nc(N2C[C@@H](CC(=O)Nc3ccc(N4CCN(C)CC4)cc3)C[C@H]2C(=O)O)c2oc3ccccc3c2n1 [Compound 9] , pIC50 read: 5.00 to 6.00

Response field pIC50 (UniProtKB Q8N884) for item Cc1nc(N2C[C@@H](CC(=O)Nc3ccccc3F)C[C@H]2C(=O)O)c2oc3ccccc3c2n1 [Compound 20] : 6.00 to 6.70

The compound Cc1nc(N2C[C@@H](CC(=O)Nc3ccc(N4CCC(O)CC4)cc3)C[C@H]2C(=O)O)c2oc3ccccc3c2n1 [Compound 53] , when measured on UniProtKB Q8N884, yielded pIC50 of 6.00 to 6.70

Reading of pIC50 for Cc1nc(N2C[C@@H](CC(=O)Nc3ccc(Cc4ccccn4)cc3)C[C@H]2C(=O)O)c2oc3ccccc3c2n1 [Compound 56] with UniProtKB Q8N884: 6.00 to 6.70

Query Cc1nc(N2C[C@@H](CC(=O)Nc3ccc(N4CCCCC4)cc3)C[C@H]2C(=O)O)c2oc3ccccc3c2n1 [Compound 7] on UniProtKB Q8N884; pIC50 returned: 6.00 to 6.70

Item Cc1nc(N2C[C@@H](CC(=O)Nc3ccc(-c4cccnc4)cc3)C[C@H]2C(=O)O)c2oc3ccccc3c2n1 [Compound 37] ; assay system UniProtKB Q8N884; pIC50 reported as > 7.30

Readout pIC50 for Cc1nc(N2C[C@@H](CC(=O)Nc3ccc4ccccc4c3)C[C@H]2C(=O)O)c2oc3ccccc3c2n1 [Compound 31] , test system UniProtKB Q8N884, was 7.00 to 7.30

The reported pIC50 value, UniProtKB Q8N884, for Cc1nc(N2C[C@@H](CC(=O)Nc3ccc4[nH]ncc4c3)C[C@H]2C(=O)O)c2oc3ccccc3c2n1 [Compound 3] reads 5.00 to 6.00

Entry Cc1nc(N2C[C@@H](CC(=O)Nc3cccc(F)c3)C[C@H]2C(=O)O)c2oc3ccccc3c2n1 [Compound 19] under UniProtKB Q8N884 had pIC50 of 6.00 to 6.70

I looked up Cc1nc(N2C[C@@H](CC(=O)Nc3cnc(-c4ccccc4)nc3)C[C@H]2C(=O)O)c2oc3ccccc3c2n1 [Compound 65] and its pIC50 for UniProtKB Q8N884 was 7.00 to 7.30

For Cc1nc(N2C[C@@H](CC(=O)Nc3ccc(Cl)cc3)C[C@H]2C(=O)O)c2oc3ccccc3c2n1 [Compound 21] on UniProtKB Q8N884, measured pIC50 was 6.70 to 7.00

Every entry's value here was drawn from patent US20240174684A1.
